measurement_label: melting point

Some compounds with known melting point results, for comparison:
compound | melting point
C[C@H](NS(=O)(=O)c1ccc(-c2c(C#N)c3ccc(F)cc3n2C2CCCCC2)nc1)C1CC1 [compound 262] | 161 to 162 °C
CCc1cc2c(cc1F)c(C#N)c(-c1ccc(S(=O)(=O)N[C@@H](C)C(F)(F)F)cn1)n2-c1ccc(Cl)cn1 [compound 966] | 252 to 259 °C
CCCn1c(-c2ccc(S(=O)(=O)N[C@@H](C)C(F)(F)F)cn2)c(C#N)c2cc(F)c(OC(F)F)cc21 [compound 786] | 162 to 168 °C
C[C@H](NS(=O)(=O)c1cnc(-c2c(C#N)c3cc(F)ccc3n2CC2CC2)nc1)C1CC1 [compound 531] | 184 to 188 °C
N#Cc1c(-c2ccc(S(=O)(=O)NC3(C(F)(F)F)CC3)cn2)n(C2CCC2)c2cc(C3CC3)ccc12 [compound 153] | 166 to 171 °C
Cc1ccc2c(C#N)c(-c3ccc(S(=O)(=O)N[C@@H](C)C(F)(F)F)cn3)n(C3CCCCC3)c2c1 [compound 354] | 207 to 212 °C

Next up:
Exercise: What value of melting point has been reported for the following compound? Cc1cc2c(cc1F)c(C(N)=O)c(-c1ccc(S(=O)(=O)N[C@@H](C)C(F)(F)F)cn1)n2C1CCC1 [compound 737]
Key: 190 to 194 °C

* * *

Catalogue of compounds with associated melting point

Some compounds with known melting point results, for comparison:
compound | melting point
CC(C)(C)S(=O)(=O)Nc1ccc(-c2c(C(N)=O)c3cc(F)c(OC(F)F)cc3n2C2CCCCC2)cn1 | 296 to 297 °C
Cc1ccc2c(C#N)c(-c3ccc(S(=O)(=O)N[C@H](C)C(F)(F)F)cn3)n(C3CCC3)c2c1 | 204 to 208 °C

Exercise: What value of melting point has been reported for the following compound? "N#Cc1c(-c2ccc(S(=O)(=O)NC(CF)CF)cn2)n(C2CCCC2)c2cc(F)ccc12"
Key: 166 to 168 °C

Exercise: What value of melting point has been reported for the following compound? "CCc1cc2c(cc1F)c(C#N)c(-c1ccc(S(=O)(=O)N[C@H](C)C(F)(F)F)cn1)n2C1CCCC1"
Key: 205.5 to 206 °C

Exercise: What value of melting point has been reported for the following compound? "Cc1ccc2c(c1)c(C(N)=O)c(-c1ccc(S(=O)(=O)N[C@@H](C)C(F)(F)F)cn1)n2-c1cnccn1"
Key: 240 to 245 °C

Exercise: What value of melting point has been reported for the following compound? CC(NS(=O)(=O)c1ccc(-c2c(C#N)c3ccc(OC(F)F)cc3n2C2CCC2)nc1)C(F)(F)F (stereo not shown)
Key: 159 to 165 °C

Exercise: What value of melting point has been reported for the following compound? "C[C@H](NS(=O)(=O)c1cnc(-c2c(C#N)c3cc(F)ccc3n2C2CCC2)nc1)C(F)(F)F"
Key: 198 to 203 °C

* * *

Catalogue of compounds with associated melting point

compound | melting point
CC(C)NS(=O)(=O)c1ccc(-c2c(C#N)c3ccc(OC(F)F)cc3n2C2CCCCC2)nc1 [compound 99] | 187 to 190 °C

Exercise: What value of melting point has been reported for the following compound? COc1ccc2c(C#N)c(-c3ccc(S(=O)(=O)NC(CF)CF)cn3)n(C3CCC3)c2c1 [compound 229]
Key: 174 to 177 °C

Exercise: What value of melting point has been reported for the following compound? C[C@H](NS(=O)(=O)c1ccc(-c2c(C(N)=O)c3cc(F)c(OC(F)F)cc3n2C2CCCC2)nc1)C(F)(F)F [compound 806]
Key: 220 to 222 °C

Exercise: What value of melting point has been reported for the following compound? CC(C)(NS(=O)(=O)c1ccc(-c2c(C#N)c3ccc(CC(F)F)cc3n2C2CCCC2)nc1)C(F)(F)F [compound 596]
Key: 194 to 199 °C

Exercise: What value of melting point has been reported for the following compound? N#Cc1ccc2c(C#N)c(-c3ncc(S(=O)(=O)NC(CF)CF)cn3)n(C3CCC3)c2c1 [compound 466]
Key: 240 to 241 °C

Exercise: What value of melting point has been reported for the following compound? C[C@H](NS(=O)(=O)c1ccc(-c2c(C#N)c3ccc(OC(F)(F)F)cc3n2C2CCCC2)nc1)C1CC1 [compound 320]
Key: 133 to 134 °C

Exercise: What value of melting point has been reported for the following compound? C[C@H](NS(=O)(=O)c1ccc(-c2c(C#N)c3ccc(F)cc3n2CC2CC2)nc1)C(F)(F)F [compound 397]
Key: 174 to 175 °C

* * *

Catalogue of compounds with associated melting point

Some compounds with known melting point results, for comparison:
compound | test_result
Cc1ccc2c(C#N)c(-c3ncc(S(=O)(=O)NC(CF)CF)cn3)n(C3CCC3)c2c1 [compound 132] | 236 to 238 °C
Cc1cc2c(cc1F)c(C#N)c(-c1ccc(S(=O)(=O)N[C@@H](C)C(F)(F)F)cn1)n2-c1cc(F)ccn1 [compound 926] | 229 to 233 °C

Exercise: What value of melting point has been reported for the following compound? C[C@H](NS(=O)(=O)c1cnc(-c2c(C#N)c3ccc(OC(F)F)cc3n2C2CCC2)nc1)C1CC1 [compound 130]
Key: 172 to 174 °C

Exercise: What value of melting point has been reported for the following compound? C[C@H](NS(=O)(=O)c1cnc(-c2c(C#N)c3ccc(OC(F)F)cc3n2C2CCCC2)nc1)C1CC1 [compound 209]
Key: 183 to 185 °C

Exercise: What value of melting point has been reported for the following compound? N#Cc1c(-c2ncc(S(=O)(=O)NC(CF)CF)cn2)n(C2CCC2)c2ccc(Cl)cc12 [compound 175]
Key: 210 to 212 °C

Exercise: What value of melting point has been reported for the following compound? C[C@H](NS(=O)(=O)c1ccc(-c2c(C(N)=O)c3cc(F)c(Cl)cc3n2C2CCC2)nc1)C(F)(F)F [compound 736]
Key: 241 to 243 °C

Exercise: What value of melting point has been reported for the following compound? N#Cc1c(-c2ccc(S(=O)(=O)NC3(C(F)(F)F)CC3)cn2)n(-c2ccc(F)cc2)c2cc(OC(F)F)ccc12 [compound 664]
Key: 195 to 198 °C

Exercise: What value of melting point has been reported for the following compound? C[C@H](NS(=O)(=O)c1ccc(-c2c(C#N)c3cc(Cl)ccc3n2C2CCC2)nc1)C(F)(F)F [compound 376]
Key: 193 to 198 °C

Exercise: What value of melting point has been reported for the following compound? Cc1ccc2c(c1)c(C#N)c(-c1ncc(S(=O)(=O)NC(C)C)cn1)n2CC1CC1 [compound 388]
Key: 219 to 222 °C

Exercise: What value of melting point has been reported for the following compound? N#Cc1c(-c2ccc(S(=O)(=O)NC(CF)CF)cn2)n(C2CC2)c2cc(OC(F)F)ccc12 [compound 42]
Key: 219 to 220 °C

Exercise: What value of melting point has been reported for the following compound? COc1cc2c(C#N)c(-c3ccc(S(=O)(=O)N[C@H](C)C(F)(F)F)cn3)n(C3CCCC3)c2cc1C [compound 694]
Key: 210.5 to 211 °C

Exercise: What value of melting point has been reported for the following compound? CCn1c(-c2ccc(NS(=O)(=O)C(C)C)cn2)c(C#N)c2ccc(OC(C)C)cc21 [compound 286]
Key: 180 to 185 °C

Exercise: What value of melting point has been reported for the following compound? CC(C)NS(=O)(=O)c1cnc(-c2c(C#N)c3ccc(C(C)C)cc3n2C2CCC2)nc1 [compound 185]
Key: 220 to 222 °C

Exercise: What value of melting point has been reported for the following compound? N#Cc1c(-c2ncc(S(=O)(=O)NC(CF)CF)cn2)n(C2CCC2)c2cc(Cl)ccc12 [compound 176]
Key: 243 to 246 °C

Exercise: What value of melting point has been reported for the following compound? CC(C)(C)NS(=O)(=O)c1ccc(-c2c(C(N)=O)c3cc(F)c(OC(F)F)cc3n2C2CCC2)nc1 [compound 723]
Key: 158 to 160 °C

* * *

Catalogue of compounds with associated melting point

compound | melting point
Cc1cc2c(cc1F)cc(-c1ccc(S(=O)(=O)N[C@@H](C)C(F)(F)F)cn1)n2-c1ccnc(F)c1 | 176 to 180 °C
Cc1cc2c(C#N)c(-c3ccc(S(=O)(=O)N[C@@H](C)C(F)(F)F)cn3)n(C3CCC3)c2cc1Cl | 198 to 198.5 °C
N#Cc1c(-c2ncc(S(=O)(=O)NC(CF)CF)cn2)n(C2CCC2)c2cc(OC(F)F)ccc12 | 205 to 207 °C

Exercise: What value of melting point has been reported for the following compound? "CCc1cc2c(cc1F)c(C#N)c(-c1ccc(S(=O)(=O)N[C@H](C)C(F)(F)F)cn1)n2-c1ccc(F)cn1"
Key: 209 to 216 °C

Exercise: What value of melting point has been reported for the following compound? "COc1ccc2c(c1)c(C#N)c(-c1ncc(S(=O)(=O)NC(CF)CF)cn1)n2C1CCCC1"
Key: 200 to 202 °C

Exercise: What value of melting point has been reported for the following compound? "C[C@H](NS(=O)(=O)c1ccc(-c2c(C(=O)O)c3cc(F)ccc3n2C2CCCCC2)nc1)C(F)(F)F"
Key: 216 to 220 °C

Exercise: What value of melting point has been reported for the following compound? "Cc1ccc2c(C#N)c(-c3ccc(S(=O)(=O)N[C@@H](C)C(F)(F)F)cn3)n(C3CCC3)c2c1F"
Key: 210 to 220 °C

Exercise: What value of melting point has been reported for the following compound? "C[C@H](NS(=O)(=O)c1ccc(-c2c(C#N)c3ccc(F)cc3n2C2CCCCC2)nc1)C(F)(F)F"
Key: 213 to 215 °C

Data provenance: patent US8735414B2
